- System: UACC-257
- experimental_details: NCI tumour cell line growth inhibition, 48 h
Calls of active or inactive are those of the source. Cut-off read from the data, not from the text of the source: active = GI50 up to about 1.1 µM and inactive = higher.
Recorded GI50, one value per entry.

// solved cases for GI50 follow
For the compound CC(=O)O[C@H]1[C@H](OC(=O)CC(C)(O)CC(=O)O)C[C@]2(C)C3=C(CCC2C1(C)C)[C@]1(C)CC[C@H]([C@H]2CC[C@H](C(C)(C)O)OC2O)[C@@]1(C)[C@@H](O)C3 (some centres undefined) , give its measured GI50 value. 19.4 µM (inactive)

For the compound O=C1N=C(Nc2ccccc2Cl)N/C1=C\c1ccc(Cl)cc1Cl , give its measured GI50 value. 75.3 µM (inactive)

For the compound Cn1nc(-c2ccccc2)c(N=[N+]=[N-])cc1=O , give its measured GI50 value. > 100 µM (inactive)

Attention now shifts to the item below.
For the compound C/C=C1\CN(C(=O)OC(C)(C)C)C1C(=O)OC(C)(C)C (centres undefined) , give its measured GI50 value. > 100 µM (inactive)

---

- System: SF-268
- experimental_details: NCI tumour cell line growth inhibition, 48 h
Active and inactive are the calls of the source. No stated cut-off is given here; in the data, active = GI50 up to about 1.1 µM and inactive = higher.
observable: GI50

// solved cases for GI50 follow
For the compound Brc1ccc2c(c1)-c1nc3c(cc1CC2)CCc1ccc(Br)cc1-3 , give its measured GI50 value. > 100 µM (inactive)

For the compound CN(c1nc(=[N+](C)C)ss1)C1CCCCC1 , give its measured GI50 value. 60.1 µM (inactive)

For the compound Cc1cccc2c1Sc1ccccc1C2NC(=O)CN(C)C (stereo unspecified) , give its measured GI50 value. > 100 µM (inactive)

For the compound COC1=CC(=O)c2ccccc2C1(CCC=C(C)C)C1=NC(C)(C)CO1 (stereo unspecified) , give its measured GI50 value. > 100 µM (inactive)

For the compound [N-]=[N+]=NCc1cccc(Nc2cc(=O)[nH]c(=O)[nH]2)c1 , give its measured GI50 value. > 100 µM (inactive)

Attention now shifts to the item below.
For the compound CN(OC(=O)CC(=O)c1ccccc1)C(=O)Cc1ccccc1 , give its measured GI50 value. > 100 µM (inactive)

---

- System: A498
- experimental_details: NCI tumour cell line growth inhibition, 48 h
The source made the active and inactive calls. No stated cut-off is given here; in the data, active = GI50 up to about 1.1 µM and inactive = higher.
Answer with one of the outcomes given here: active, inactive

# count of solved cases: 5
Per the assay record, what outcome was assigned to CCCCSCC(NC(=O)/C=C/c1c(C)[nH]c(=O)[nH]c1=O)C(=O)OC (centres undefined) ? inactive

Per the assay record, what outcome was assigned to Cn1cnc([N+](=O)[O-])c1Sc1nc2cc([N+](=O)[O-])ccc2[nH]1 ? inactive

Per the assay record, what outcome was assigned to COc1ccccc1-c1cc(O)c2c(C)cc(C)nc2n1 ? inactive

Per the assay record, what outcome was assigned to Cc1cc(C)c(N[S+]([O-])c2cccc([N+](=O)[O-])c2)c(C)c1 (centres undefined) ? inactive

Per the assay record, what outcome was assigned to Cc1ccc(N2C(=O)/C(=C3\Sc4c(nc(C)[nH]c4=O)N3c3ccccc3)SC2=S)cc1 ? inactive

New cases:
Per the assay record, what outcome was assigned to O=C(O)Cc1ccc2nc(COC(=O)c3ccccc3)sc2c1 ? inactive

Per the assay record, what outcome was assigned to COc1cc2oc(=O)cc(C)c2c(OC)c1OC(C)=O ? inactive

---

Recorded GI50, one value per entry.
- Tested on: SNB-19
- experimental_details: NCI tumour cell line growth inhibition, 48 h
Activity calls are given as the source filed them. Rule as the data show it: active = GI50 up to about 1.1 µM and inactive = higher.

// solved cases for GI50 follow
For the compound O=C(NCCNCCCNC(=O)c1cc(-c2ccccc2)nc2ccccc12)c1cccc(OCc2ccccc2)c1OCc1ccccc1 , give its measured GI50 value. 1.78 µM (inactive)

For the compound O=C1CCC(=O)c2ccccc2N1 , give its measured GI50 value. > 100 µM (inactive)

New cases:
For the compound C#CCSC(C=C=C)P(=O)(OC(C)C)OC(C)C (stereo not given) , give its measured GI50 value. > 100 µM (inactive)

For the compound O=C(Cn1cc(Br)c(=O)[nH]c1=O)c1ccc(-c2ccccc2)cc1 , give its measured GI50 value. 2.25 µM (inactive)

For the compound O=C(N/N=C\c1cccc2ccccc12)Nc1cccc2ccccc12 , give its measured GI50 value. 16.4 µM (inactive)

For the compound CC(=O)NC(C)(C)C1CC=C(C)CC1 (stereo not given) , give its measured GI50 value. > 100 µM (inactive)

For the compound CCN(CC)CCCCC1CCN(CC(=O)N2c3ccccc3NC(=O)c3ccccc32)CC1 , give its measured GI50 value. > 100 µM (inactive)

For the compound COc1ccc(NC(=O)NNS(=O)(=O)c2ccc(C)cc2)cc1 , give its measured GI50 value. > 100 µM (inactive)

For the compound CC(=O)NC(CCCOC(C)=O)C(=O)NC(CCCOC(C)=O)C(=O)NC(CCCOC(C)=O)C(=O)NC(Cc1ccc([N+](=O)[O-])cc1)C(=O)NCC(=O)OCc1ccccc1 (stereo not given) , give its measured GI50 value. > 100 µM (inactive)

For the compound C#CCCCC(=C)C[C@@H]1OC(=O)[C@H](C)[C@@H]1O , give its measured GI50 value. > 100 µM (inactive)

---

- Test system: TK-10
- experimental_details: NCI tumour cell line growth inhibition, 48 h
Active and inactive are the calls of the source. Cut-off read from the data, not from the text of the source: active = GI50 up to about 1.1 µM and inactive = higher.
observable: GI50

// solved cases for GI50 follow
For the compound Cc1ccc2c(c1)C1(OC(=O)c3ccccc31)c1ccc(F)cc1O2 (stereo not given) , give its measured GI50 value. > 100 µM (inactive)

For the compound O=C(O)c1nn(-c2ccccc2)nc1-c1nn(-c2ccccc2)nc1C(=O)O , give its measured GI50 value. > 100 µM (inactive)

For the compound COC(=O)C12CCC(C(F)(F)C1=O)C2(C)C (stereo not given) , give its measured GI50 value. > 100 µM (inactive)

New cases:
For the compound CC(C(=O)C(C)O[Si](c1ccccc1)(c1ccccc1)C(C)(C)C)=P(c1ccccc1)(c1ccccc1)c1ccccc1 (stereo not given) , give its measured GI50 value. 4.76 µM (inactive)

For the compound COc1cccc2c(SCC(=O)Nc3ccccc3-c3ccccc3NC(=O)CSc3c4ccccc4nc4c(OC)cccc34)c3ccccc3nc12 , give its measured GI50 value. > 100 µM (inactive)

---

- Test system: IGROV-1
- experimental_details: NCI tumour cell line growth inhibition, 48 h
Active and inactive are the calls of the source. Rule as the data show it: active = GI50 up to about 1.1 µM and inactive = higher.
Answer with one of the outcomes given here: 1.0 = active, 0.0 = inactive

# count of solved cases: 8
Per the assay record, what outcome was assigned to CC(=O)O[C@H]1C[C@H](O[C@H]2[C@@H](O)C[C@H](O[C@H]3[C@@H](O)C[C@H](O[C@H]4CC[C@@]5(C)[C@H](CC[C@@H]6[C@@H]5CC[C@]5(C)[C@@H](C7=CC(=O)OC7)CC[C@]65O)C4)O[C@@H]3C)O[C@@H]2C)O[C@H](C)[C@H]1O[C@@H]1O[C@H](CO)[C@@H](O)[C@H](O)[C@H]1O ? 1.0

Per the assay record, what outcome was assigned to O=C(CSCC(=O)N/N=C/c1cccs1)N/N=C/c1cccs1 ? 0.0

Per the assay record, what outcome was assigned to C=C/C=C/NC(=O)OCc1ccccc1 ? 0.0

Per the assay record, what outcome was assigned to CC(=O)O[C@H]1[C@H](OC(=O)CC(C)(O)CC(=O)O)C[C@]2(C)C3=C(CCC2C1(C)C)[C@]1(C)CC[C@H]([C@H]2CC[C@H](C(C)(C)O)OC2O)[C@@]1(C)[C@@H](O)C3 (some centres undefined) ? 0.0

Per the assay record, what outcome was assigned to CC1C2CC(CC2N)C1(C)C (centres undefined) ? 0.0

Per the assay record, what outcome was assigned to O=C(NCCCNC(=O)c1ccc2cc(O)c(O)cc2c1)c1ccc2cc(O)c(O)cc2c1 ? 0.0

Per the assay record, what outcome was assigned to CCCCC/C=C\C=C1\C(=O)C=C[C@@H]1C/C=C\CCCC(=O)O ? 0.0

Per the assay record, what outcome was assigned to Fc1cccc(F)c1C1SCc2nc3cc(Cl)ccc3n21 (centres undefined) ? 0.0

Next compound, please.
Per the assay record, what outcome was assigned to CCC(=O)NC(Nc1cc(C)on1)(C(F)(F)F)C(F)(F)F ? 0.0

---

- Test system: A549
- experimental_details: NCI tumour cell line growth inhibition, 48 h
The source made the active and inactive calls. Rule as the data show it: active = GI50 up to about 1.1 µM and inactive = higher.
Answer with one of the outcomes given here: active, inactive

# count of solved cases: 5
Per the assay record, what outcome was assigned to Cc1c(Cl)nc(Cl)nc1Cl ? inactive

Per the assay record, what outcome was assigned to CCC1=CCN(c2cc(C)ccn2)OC1c1ccc(OC)cc1 (stereo unspecified) ? inactive

Per the assay record, what outcome was assigned to C=C[C@H]1CN2CCc3c([nH]c4c([C@@H]5CCCN5C)c(O)ccc34)[C@@H]2C[C@@H]1C[C@H]1c2[nH]c3ccccc3c2CCN1C ? active

Per the assay record, what outcome was assigned to COc1ccc2cc(-c3ccc(OC)c(OC)c3)c(=O)oc2c1 ? inactive

Per the assay record, what outcome was assigned to Cc1cc(O)nc2c3c(ccc12)OC(C)(C)C=C3 ? inactive

New cases:
Per the assay record, what outcome was assigned to CC12CC(c3ccccc3O1)C(C(=O)Nc1nccs1)C(=O)N2 (stereo unspecified) ? inactive

Per the assay record, what outcome was assigned to CN(C)c1ccc(/C=C2\Cc3ccccc3C2=O)cc1Br ? inactive
